From: patent US9181265B2

# System: U373
# protocol.notes: MTT test of overall cell growth, U373 glioma cells, normoxia or hypoxia
# Format: cell-based, human
# test.conditions: U373, hypoxia 1% O2, 72 h; read-out: IC50 (μM) Hypoxia 1% O2
quantity: IC50 (µM)

>>> assay_value("CC1CCC2C(C1)c1c(c3ccccc3c3nc4ccc(C(=O)NC(CO)Cc5ccccc5)cc4nc13)OC2(C)C (mixture of isomers) [Compound 17′]")
1.34
>>> assay_value("C[C@H]1CC[C@H]2[C@H](C1)c1c(c3ccccc3c3nc4cc(C(=O)N[C@@H](CO)Cc5ccccc5)ccc4nc13)OC2(C)C [Compound 17]")
1.23

====

# Tested on: LoVo
# protocol.notes: MTT test of overall cell growth, LoVo colorectal cancer cells, normoxia or hypoxia
# Type: cell-based, human
# test.conditions: hypoxia 1% O2, 72 h, read-out: IC50 (μM) Hypoxia 1% O2
# Protocol: MTT tests were performed in order to rapidly, i.e. within 3 days, measure the effect of compounds of this invention on the overall cell growth. The test measured the number of metabolically active living cells that were able to transform the yellow product 3-(4,5-dimethylthiazol-2-yl)-2,5-diphenyl tetrazolium bromide (herein referred as MTT) into the blue product formazan dye by mitochondrial reduction. […]
Measured IC50, listed per entry.
quantity: IC50

>>> assay_value("C[C@H]1CC[C@H]2[C@H](C1)c1c(c3ccccc3c3nc4cc(C(=O)N[C@@H](CO)Cc5ccccc5)ccc4nc13)OC2(C)C")
"9.47 µM"
>>> assay_value("CC1CCC2C(C1)c1c(c3ccccc3c3nc4ccc(C(=O)NC(CO)Cc5ccccc5)cc4nc13)OC2(C)C (mixture of isomers)")
"11.4 µM"

====

# Tested on: U373
# protocol.notes: MTT test of overall cell growth, U373 glioma cells, normoxia or hypoxia
# Format: cell-based, human
# test.conditions: Homo sapiens, U373 MG; U373, normoxia, 72 h; read-out: IC50 (μM) Normoxia
Measured IC50, listed per entry.
quantity: IC50 (µM)

>>> assay_value("C[C@H]1CC[C@H]2[C@H](C1)c1c(c3ccccc3c3nc4cc(C(=O)N5CCOCC5)ccc4nc13)OC2(C)C (racemic)")
10.6
>>> assay_value("C[C@H]1CC[C@H]2[C@H](C1)c1c(c3ccccc3c3nc4ccc(C(=O)N5CCOCC5)cc4nc13)OC2(C)C (racemic)")
9.08

====

# System: LoVo
# protocol.notes: MTT test of overall cell growth, LoVo colorectal cancer cells, normoxia or hypoxia
# Format: cell-based, human
# test.conditions: IC50 (normoxia)/IC50 (hypoxia 1% O2), if u.t.d., ratio of activity at 100 μM
Measured Selectivity, listed per entry.
quantity: Selectivity

>>> assay_value("C[C@H]1CC[C@H]2[C@H](C1)c1c(c3ccccc3c3nc4cc(C(=O)N5CCOCC5)ccc4nc13)OC2(C)C (racemic)")
7.38
>>> assay_value("COC(=O)c1ccc2nc3c4c(c5ccccc5c3nc2c1)OC(C)(C)[C@H]1CC[C@H](C)C[C@H]41")
1.42
>>> assay_value("CC1CCC2C(C1)c1c(c3ccccc3c3nc4ccc(C(=O)NC(CO)Cc5ccccc5)cc4nc13)OC2(C)C (mixture of isomers)")
1.64
>>> assay_value("C[C@H]1CC[C@H]2[C@H](C1)c1c(c3ccccc3c3nc4cc(C(=O)N[C@@H](CO)Cc5ccccc5)ccc4nc13)OC2(C)C")
1.04
>>> assay_value("COc1ccc(CNC(=O)c2ccc3nc4c(nc3c2)c2c(c3ccccc34)OC(C)(C)[C@H]3CC[C@H](C)C[C@H]23)c(OC)c1")
0.76
>>> assay_value("C[C@H]1CC[C@H]2[C@H](C1)c1c(c3ccccc3c3nc4ccc(C(=O)N5CCOCC5)cc4nc13)OC2(C)C (racemic)")
8.75
>>> assay_value("COC(=O)c1ccc2nc3c(nc2c1)c1c(c2ccccc23)OC(C)(C)[C@H]2CC[C@H](C)C[C@H]12")
1.43

====

Measured IC50, listed per entry.
# System: Human umbilical vein endothelial cells (HUVEC)
# protocol.notes: MTT test of overall cell growth, endothelial cells, normoxic or hypoxic conditions
# Assay type: cell-based
# test.conditions: Homo sapiens, 72 h, hypoxia 1% O2, 72 h, read-out: IC50 (μM) Hypoxia 1%
# Procedure: MTT tests were performed in order to rapidly, i.e. within 3 days, measure the effect of compounds of this invention on the overall cell growth. The test measured the number of metabolically active living cells that were able to transform the yellow product 3-(4,5-dimethylthiazol-2-yl)-2,5-diphenyl tetrazolium bromide (herein referred as MTT) into the blue product formazan dye by mitochondrial reduction. […]
quantity: IC50 (µM)

>>> assay_value("COc1ccc(CNC(=O)c2ccc3nc4c(nc3c2)c2c(c3ccccc34)OC(C)(C)[C@H]3CC[C@H](C)C[C@H]23)c(OC)c1")
7.96
>>> assay_value("COc1ccc(CNC(=O)c2ccc3nc4c5c(c6ccccc6c4nc3c2)OC(C)(C)[C@H]2CC[C@H](C)C[C@H]52)c(OC)c1")
14.4
>>> assay_value("COC(=O)c1ccc2nc3c4c(c5ccccc5c3nc2c1)OC(C)(C)[C@H]1CC[C@H](C)C[C@H]41")
10.9
>>> assay_value("C[C@H]1CC[C@H]2[C@H](C1)c1c(c3ccccc3c3nc4ccc(C(=O)N5CCOCC5)cc4nc13)OC2(C)C (racemic)")
0.14
>>> assay_value("C[C@H]1CC[C@H]2[C@H](C1)c1c(c3ccccc3c3nc4cc(C(=O)N5CCOCC5)ccc4nc13)OC2(C)C (racemic)")
0.4
>>> assay_value("COC(=O)c1ccc2nc3c(nc2c1)c1c(c2ccccc23)OC(C)(C)[C@H]2CC[C@H](C)C[C@H]12")
11.8

====

# Test system: MDA-MB-231
# protocol.notes: MTT test of overall cell growth, MDA-MB-231 breast cancer cells, normoxia or hypoxia
# Format: cell-based, human
# test.conditions: MDA-MB-231, normoxia, 72 h; read-out: IC50 (μM) Normoxia
Measured IC50, listed per entry.
quantity: IC50 (µM)

>>> assay_value("C[C@H]1CC[C@H]2[C@H](C1)c1c(c3ccccc3c3nc4cc(C(=O)N[C@@H](CO)Cc5ccccc5)ccc4nc13)OC2(C)C")
13.4
>>> assay_value("CC1CCC2C(C1)c1c(c3ccccc3c3nc4ccc(C(=O)NC(CO)Cc5ccccc5)cc4nc13)OC2(C)C (mixture of isomers)")
59.9

====

# System: LoVo
# protocol.notes: MTT test of overall cell growth, LoVo colorectal cancer cells, normoxia or hypoxia
# Assay type: cell-based, human
# test.conditions: normoxia, 72 h, read-out: IC50 (μM) Normoxia
quantity: IC50

>>> assay_value("CC1CCC2C(C1)c1c(c3ccccc3c3nc4ccc(C(=O)NC(CO)Cc5ccccc5)cc4nc13)OC2(C)C (mixture of isomers)")
"18.8 µM"
>>> assay_value("C[C@H]1CC[C@H]2[C@H](C1)c1c(c3ccccc3c3nc4cc(C(=O)N[C@@H](CO)Cc5ccccc5)ccc4nc13)OC2(C)C")
"9.83 µM"
